Target: Prostaglandin G/H synthase 2 (Homo sapiens)
Sequence (P35354 whole entry): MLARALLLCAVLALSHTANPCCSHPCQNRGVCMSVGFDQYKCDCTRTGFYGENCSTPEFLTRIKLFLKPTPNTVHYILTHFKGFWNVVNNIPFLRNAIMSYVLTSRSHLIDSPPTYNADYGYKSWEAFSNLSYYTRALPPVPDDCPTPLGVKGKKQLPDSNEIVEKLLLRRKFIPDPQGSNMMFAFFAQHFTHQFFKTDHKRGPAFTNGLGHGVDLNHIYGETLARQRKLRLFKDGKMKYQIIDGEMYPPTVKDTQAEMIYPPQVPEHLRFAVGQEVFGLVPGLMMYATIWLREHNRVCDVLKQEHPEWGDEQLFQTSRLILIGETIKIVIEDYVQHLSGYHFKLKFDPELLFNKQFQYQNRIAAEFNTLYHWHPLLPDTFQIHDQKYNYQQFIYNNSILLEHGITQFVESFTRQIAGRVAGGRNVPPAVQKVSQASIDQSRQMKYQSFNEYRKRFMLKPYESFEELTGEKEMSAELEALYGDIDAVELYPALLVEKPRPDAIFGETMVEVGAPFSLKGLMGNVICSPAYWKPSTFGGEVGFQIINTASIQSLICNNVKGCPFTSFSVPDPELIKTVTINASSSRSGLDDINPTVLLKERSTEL

smiles_structure: O=C1Nc2ccccc2/C1=C/c1coc2ccccc2c1=O
unit_text: nM
IC50: 20

// provenance: ChEMBL document CHEMBL5390269
